measurementTarget: T1, cynomolgus IL-18BP (cynomolgus monkey)
T1 construct: Generated in-house; also called cyIL-18BP; cyno IL-18BP
T1 chain: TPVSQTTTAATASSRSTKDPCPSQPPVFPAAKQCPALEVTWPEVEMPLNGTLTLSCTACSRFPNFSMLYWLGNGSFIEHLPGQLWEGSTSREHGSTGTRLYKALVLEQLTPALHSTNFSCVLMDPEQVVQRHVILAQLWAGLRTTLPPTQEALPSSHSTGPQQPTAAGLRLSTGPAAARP
assayMethodText: BLI single-concentration screen, apparent KD
outcomeMeasure: Kd
Reply with a number, then the unit it belongs to.

Reference set, count: 5
binder	Kd
SA302a heavy chain variant N33bH, C34A (antibody, human IgG1, V domains shown, library variant, human IgG1/kappa, from supernatant) VH: QVQLQESGPGLVKPSQTLSLTCTVSGYSITSDYHAHWIRQPPGKGLEWIGYIHYSGSTNYNPSLKSRVTISRDTSKNQFSLKLSSVTAADTAVYYCARNYGSIYVNYFDYWGQGTLVTVSS VL: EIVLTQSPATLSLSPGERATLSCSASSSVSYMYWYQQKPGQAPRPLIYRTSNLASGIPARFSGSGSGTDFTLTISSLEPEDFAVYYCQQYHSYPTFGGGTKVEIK	600 pM
SA302a heavy chain variant N33bI, C34A (antibody, human IgG1, V domains shown, library variant, human IgG1/kappa, from supernatant) VH: QVQLQESGPGLVKPSQTLSLTCTVSGYSITSDYIAHWIRQPPGKGLEWIGYIHYSGSTNYNPSLKSRVTISRDTSKNQFSLKLSSVTAADTAVYYCARNYGSIYVNYFDYWGQGTLVTVSS VL: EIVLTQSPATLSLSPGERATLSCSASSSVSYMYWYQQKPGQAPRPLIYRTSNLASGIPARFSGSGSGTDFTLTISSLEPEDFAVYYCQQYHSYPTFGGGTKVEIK	400 pM
heavy chain library variant C34I (antibody, V domains shown) VH: QVQLQESGPGLVKPSQTLSLTCTVSGYSITSDYNIHWIRQPPGKGLEWIGYIHYSGSTNYNPSLKSRVTISRDTSKNQFSLKLSSVTAADTAVYYCARNYGSIYVNYFDYWGQGTLVTVSS VL: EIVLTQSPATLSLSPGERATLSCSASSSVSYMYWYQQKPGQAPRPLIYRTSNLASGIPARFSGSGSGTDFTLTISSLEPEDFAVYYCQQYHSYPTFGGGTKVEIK	600 pM
heavy chain library variant C34D (antibody, V domains shown) VH: QVQLQESGPGLVKPSQTLSLTCTVSGYSITSDYNDHWIRQPPGKGLEWIGYIHYSGSTNYNPSLKSRVTISRDTSKNQFSLKLSSVTAADTAVYYCARNYGSIYVNYFDYWGQGTLVTVSS VL: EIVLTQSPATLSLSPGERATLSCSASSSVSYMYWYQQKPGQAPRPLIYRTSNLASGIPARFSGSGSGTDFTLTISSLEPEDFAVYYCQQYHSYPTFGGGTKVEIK	400 pM
SA302a heavy chain variant N33bQ, C34A (antibody, human IgG1, V domains shown, library variant, human IgG1/kappa, from supernatant) VH: QVQLQESGPGLVKPSQTLSLTCTVSGYSITSDYQAHWIRQPPGKGLEWIGYIHYSGSTNYNPSLKSRVTISRDTSKNQFSLKLSSVTAADTAVYYCARNYGSIYVNYFDYWGQGTLVTVSS VL: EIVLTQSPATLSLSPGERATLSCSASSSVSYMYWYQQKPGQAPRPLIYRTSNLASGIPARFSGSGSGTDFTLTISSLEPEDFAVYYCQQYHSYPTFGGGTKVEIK	1600 pM

Per the records, this binder ( SA302a heavy chain variant N33bT, C34A (antibody, human IgG1, V domains shown, library variant, human IgG1/kappa, from supernatant) VH: QVQLQESGPGLVKPSQTLSLTCTVSGYSITSDYTAHWIRQPPGKGLEWIGYIHYSGSTNYNPSLKSRVTISRDTSKNQFSLKLSSVTAADTAVYYCARNYGSIYVNYFDYWGQGTLVTVSS VL: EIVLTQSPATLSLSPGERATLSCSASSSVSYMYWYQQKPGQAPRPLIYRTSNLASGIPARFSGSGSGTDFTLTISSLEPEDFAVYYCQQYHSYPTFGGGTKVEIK ) has Kd equal to 300 pM

Kd in this record for SA301a heavy chain variant N33bP, C34S (antibody, human IgG1, V domains shown, library variant, human IgG1/kappa, from supernatant) VH: QVQLQESGPGLVKPSQTLSLTCTVSGYSITSDYPSHWIRQPPGKGLEWIGYIHYSGSTNYNPSLKSRVTISRDTSKNQFSLKLSSVTAADTAVYYCARNYGSIYVNYFDYWGQGTLVTVSS VL: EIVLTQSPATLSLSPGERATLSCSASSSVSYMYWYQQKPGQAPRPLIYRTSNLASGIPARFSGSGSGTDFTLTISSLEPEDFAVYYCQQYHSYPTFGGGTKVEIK : 1300 pM

SA302a heavy chain variant N33bM, C34A (antibody, human IgG1, V domains shown, library variant, human IgG1/kappa, from supernatant) VH: QVQLQESGPGLVKPSQTLSLTCTVSGYSITSDYMAHWIRQPPGKGLEWIGYIHYSGSTNYNPSLKSRVTISRDTSKNQFSLKLSSVTAADTAVYYCARNYGSIYVNYFDYWGQGTLVTVSS VL: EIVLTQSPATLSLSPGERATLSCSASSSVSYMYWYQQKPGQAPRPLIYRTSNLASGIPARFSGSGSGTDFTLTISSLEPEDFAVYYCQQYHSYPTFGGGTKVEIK yielded Kd of 1000 pM

Reported Kd for SA301a heavy chain variant N33bD, C34S (antibody, human IgG1, V domains shown, library variant, human IgG1/kappa, from supernatant) VH: QVQLQESGPGLVKPSQTLSLTCTVSGYSITSDYDSHWIRQPPGKGLEWIGYIHYSGSTNYNPSLKSRVTISRDTSKNQFSLKLSSVTAADTAVYYCARNYGSIYVNYFDYWGQGTLVTVSS VL: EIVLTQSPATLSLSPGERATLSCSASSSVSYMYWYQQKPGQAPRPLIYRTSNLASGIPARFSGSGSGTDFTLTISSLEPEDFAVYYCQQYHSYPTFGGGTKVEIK was 100 pM

Briefly, Kd measured for heavy chain library variant C34R (antibody, V domains shown) VH: QVQLQESGPGLVKPSQTLSLTCTVSGYSITSDYNRHWIRQPPGKGLEWIGYIHYSGSTNYNPSLKSRVTISRDTSKNQFSLKLSSVTAADTAVYYCARNYGSIYVNYFDYWGQGTLVTVSS VL: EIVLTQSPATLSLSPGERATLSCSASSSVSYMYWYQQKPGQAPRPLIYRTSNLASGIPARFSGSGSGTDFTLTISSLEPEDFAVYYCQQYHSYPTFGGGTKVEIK : 600 pM
